meta.source: PubChem BioAssay

# testDetails: inhibitors of hydroxyurea-induced Chk1 phosphorylation, primary screen, imaging, HeLa, phospho-Chk1 antibody, percent positive cells (AID 1186)
# runParameters: hydroxyurea-induced phospho-Chk1 immunofluorescence imaging, higher = more signal
The source made the active and inactive calls. How the calls were made is not given here.
valueType: z-score

// recorded z-score for `CN(C)CCCNC(=O)[C@@]1(C)c2ccccc2C(=O)N(Cc2ccccc2)[C@H]1c1ccc(CO)cc1` : 0.559 (inactive)

Measured z-score, C=CCC(OC(C)=O)[C@@H]1[C@@H](N(Cc2cc3ccccc3o2)C(=O)Cc2ccc(F)cc2)c2cc(OCCCO)ccc2N1C(=O)c1ccc2ccccc2c1 (some centres undefined) : 0.608 (inactive)

// recorded z-score for `COc1ccc([Si](C)(C)[C@H]2[C@H](CC(=O)N(CCO)Cc3ccccc3)O[C@@]3(C(=O)N(Cc4cccc(N5CCOC5=O)c4)c4ccccc43)[C@@H]2C)cc1` : -0.178 (inactive)

Data point: CC(C)N1CC=CC23O[C@@H]4C=CCOC(=O)[C@@H]4[C@H]2C(=O)N(CCCO)[C@@H]3C1=O (some centres undefined) ; z-score = 0.762 (inactive)

The molecule listed as `CC(=O)NCCCC[C@@H]1NC(=O)[C@@H]2C[C@H](C(=O)NCCCC[N+](C)(C)C)[C@H](c3ccc(O)cc3)N2C1=O` shows z-score equal to -0.508 (inactive)

Lab note: CC(=O)c1ccc(C(O)C2C=CC3C(=O)N(c4ccccc4)C(=O)C3N2Nc2ccc(C#N)cc2)cc1 (centres undefined) gave z-score of 0.293 (inactive)

O=C1NC(=O)C2C1C=CC(C(O)CCc1ccccc1)N2Nc1ccc(Cl)cc1Cl (centres undefined) yielded z-score of 0.738 (inactive)

Entry O=C1NC(=O)C2C1C=CC(C(O)c1cccc3ccccc13)N2Nc1ccc(Cl)cc1Cl (centres undefined) , z-score reported as 0.461 (inactive)

For record `COc1ccc([Si](C)(C)[C@@H]2[C@@H](CCn3cc([C@H](O)c4ccccc4)nn3)O[C@]3(C(=O)N(Cc4ccc(N5CCC5=O)cc4)c4ccccc43)[C@H]2C)cc1` the listed z-score is -0.169 (inactive)

Recorded result, `COc1ccc([Si](C)(C)[C@@H]2[C@@H](CC(=O)N(CCO)Cc3ccccc3)O[C@]3(C(=O)N(Cc4cccc(N5CCOC5=O)c4)c4ccccc43)[C@H]2C)cc1` , z-score: 0.437 (inactive)

For reference, reported z-score for `CCOC(=O)C1=C[C@@H](c2ccccc2)N(S(=O)(=O)c2ccc(C)cc2)[C@H]1c1ccccc1Cl` stands at -0.339 (inactive)

`CCOC(=O)c1ccc(NC(=O)O[C@H]2[C@H](OC(=O)Nc3ccc4c(c3)OCO4)[C@@H](OC(=O)Nc3ccc4c(c3)OCO4)[C@@H](OC)O[C@@H]2CO)cc1` yielded z-score of -0.301 (inactive)

For `C=CCNC(=O)[C@H]1[C@@H]2C(=O)O[C@@H](c3ccccc3)[C@@H](c3ccccc3)N2[C@@H](c2ccc(O)cc2)[C@]12C(=O)Nc1ccc(C#CC3(O)CCCCCC3)cc12` the molecule record lists z-score as -0.165 (inactive)

The recorded z-score for CCOC(=O)C1CCCCN1 (centres undefined) is 0.0889 (inactive)

So for `O=C(N1CCCCC1)[C@@]1(CCS(=O)(=O)c2ccccc2)COC(c2ccc(OCCCO)cc2)=N1` , the logged z-score turned out to be -0.0331 (inactive)

Briefly, z-score measured for `COc1ccc(NC(=O)O[C@H]2[C@H](OC(=O)Nc3ccccc3)[C@@H](OC(=O)Nc3ccccc3)[C@@H](OC)O[C@@H]2CO)cc1` : -0.454 (inactive)

Recorded result, CCCCN1CC=CC23O[C@@H]4/C=C\CCC(C)OC(=O)C4[C@H]2C(=O)N(C(CO)C(C)C)[C@@H]3C1=O (some centres undefined) , z-score: -0.428 (inactive)

// z-score value for `COc1ccc(CN(C2=CC[C@@]3(C(N)=O)C(=O)C(Cl)=C(Cl)C(=O)[C@@]3(C#N)C2)S(=O)(=O)c2ccc(Br)cc2)cc1` : -0.207 (inactive)

Notebook: `COCCOC(=O)N1C(=O)[C@@]2(c3cc(C#Cc4ccc(OC)cc4)ccc31)[C@H](C(=O)Nc1nc3ccccc3s1)[C@H]1C(=O)O[C@H](c3ccccc3)[C@H](c3ccccc3)N1[C@@H]2c1ccc(O)cc1` , z-score read as -0.519 (inactive)

The molecule identified as `CN(C)C(=O)[C@@]1(CCS(=O)(=O)c2ccccc2)N=C(c2ccc(OCCCO)cc2)O[C@H]1c1ccccc1` registered its z-score at -0.13 (inactive)

Record `COc1ccc(CCNC(=O)[C@@H]2c3ccccc3C(=O)N(Cc3cc(C(F)(F)F)cc(C(F)(F)F)c3)[C@H]2c2ccc(CO)cc2)cc1` . Reported z-score: -0.198 (inactive)

// field: z-score; key: `O=C1O[C@H](c2ccccc2)[C@H](c2ccccc2)N2[C@H]1[C@@H](C(=O)N1CCN(c3ncccn3)CC1)[C@]1(C(=O)Nc3ccc(C#CC4(O)CCCCCC4)cc31)[C@H]2c1ccc(OCCO)cc1` ; value = 0.354 (inactive)

# molecule `COc1ccc([Si](C)(C)[C@@H]2[C@@H](CCO)O[C@]3(C(=O)N(Cc4ccc(N5CCCCC5=O)cc4)c4ccccc43)[C@H]2C)cc1` ; its z-score = -0.913 (inactive)

Lab note: `COC(=O)[C@@]1(Cc2ccc(OC)cc2)[C@H]2c3cc(C(=O)N4CCCC4)n(Cc4c(-c5ccccc5)noc4C)c3C[C@H]2CN1C(=O)c1ccccc1` gave z-score of -0.279 (inactive)
